Collected pIC50 values appear next to each entry.
target: PDK-1 (Homo sapiens); assay: PDK-1 kinase inhibition ELISA assay (phosphorylation of His6-tagged SGK1 S422D by PDK-1); assay type: biochemical; conditions: PDK-1 ELISA, Table 11; read-out: Average IC50
Sequence (O15530 whole entry): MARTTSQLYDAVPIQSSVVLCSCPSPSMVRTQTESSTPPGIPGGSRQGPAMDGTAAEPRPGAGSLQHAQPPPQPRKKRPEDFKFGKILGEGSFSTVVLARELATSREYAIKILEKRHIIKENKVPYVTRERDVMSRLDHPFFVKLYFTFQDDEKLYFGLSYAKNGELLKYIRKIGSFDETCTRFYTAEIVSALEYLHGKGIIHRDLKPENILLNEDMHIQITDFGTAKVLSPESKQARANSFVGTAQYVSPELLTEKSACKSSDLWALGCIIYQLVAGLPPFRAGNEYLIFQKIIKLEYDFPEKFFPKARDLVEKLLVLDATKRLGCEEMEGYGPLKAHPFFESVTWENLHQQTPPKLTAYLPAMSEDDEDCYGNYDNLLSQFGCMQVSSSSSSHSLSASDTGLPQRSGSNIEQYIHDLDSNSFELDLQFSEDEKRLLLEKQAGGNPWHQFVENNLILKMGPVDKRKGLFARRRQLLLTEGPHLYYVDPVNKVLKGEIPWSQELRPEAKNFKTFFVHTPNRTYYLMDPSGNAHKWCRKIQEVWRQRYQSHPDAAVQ
Notebook: values listed as pIC50 are -log10 of the concentration (mol/L).

# count of solved cases: 5
COc1cc2ncc3c(N)nc(-c4ccc(F)c(F)c4)cc3c2cc1OC : 6.00
COc1cc2c(cc1OCCN1CCOCC1)ncc1c(N)nc(-n3ccnc3)cc12 : 7.10
COc1cc2ncc3c(NO)nc(-c4cncc(OC[C@@H](N)Cc5c[nH]c6ccccc56)c4)cc3c2cc1OC : 7.10
COc1cc2ncc3c(N)nc(-c4cncc(OC[C@@H](N)CO)c4)cc3c2cc1OC : 8.22
COCCOc1cc2ncc3c(N)nc(N(C)C(C)C)cc3c2cc1OC : 5.84

# input Look up pIC50 for this molecule: COc1cc2ncc3c(N)nc(-c4cncc(OC[C@@H](N)CN(C)c5cccc(F)c5)c4)cc3c2cc1OC
# output 8.30

# input Form field: reported pIC50 of COc1cc2ncc3c(N)nc(-c4cncc(Nc5ccc(C(N)=O)cc5)c4)cc3c2cc1OC
# output 6.74

# input Field request: pIC50 | item: COc1cc2ncc3c(N)nc(-c4cncc(OC[C@H]5CCCN5)c4)cc3c2cc1OC
# output 7.37
